Provenance of the data: PubChem BioAssay AID1508610

molecular target: G-protein coupled receptor 151 (Homo sapiens); test: GPR151 activator potency, dose response, cell-based (AID 1508610); settings: cell-based GPR151 activation reporter
Calls of active or inactive are those of the source. No rule for the calls is given here.
Below: a set of entries, each annotated with reported EC50.

Solved cases below.
> print(dat)
                              sample.smiles                result
1  Cc1ccc(NC(=O)CN(C)S(=O)(=O)c2ccc(Br)cc2)cc1Cl    > 28 µM (inactive)
2  COCCn1c(C)cc(C(=O)COC(=O)c2cccc(O)c2)c1C  > 30.4 µM (inactive)
3  O=C(Nc1nc(-c2cc3ccccc3o2)cs1)c1cc2ccccc2oc1=O  > 24.7 µM (inactive)

Q) Would you kindly share the measured EC50 for O=c1oc2ccccc2cc1-c1cn2ccccc2n1 ?
A) > 34.7 µM (inactive)

Q) Also Cc1ccc(CNC(=O)c2csnn2)cc1 ?
A) > 28 µM (inactive)

Q) Also COc1ccc(C(=O)N/N=C/c2ccc(O)cc2O)cc1OC ?
A) > 28 µM (inactive)

---

molecular target: UniProt:Q8TDV0; assay: GPR151 activator potency, dose response, cell-based (AID 1508610); settings: cell-based GPR151 activation reporter
The source made the active and inactive calls. No rule for the calls is given here.
A correct response names exactly one class from 1 (yes) = active, 0 (no) = inactive

> print(dat)
                                   compound  assigned.category
1  CCC(=O)N1CCN(c2ccc(NC(=O)c3ccco3)cc2)CC1             0 (no)
2  COc1cc(Br)ccc1OCC(=O)N/N=C/c1ccc([N+](=O)[O-])cc1             0 (no)

Q) Lab log entry: CC(=O)Nc1ccc(NC(=O)c2ccc3nc(Nc4ccccn4)sc3c2)cc1 — outcome as called in the assay?
A) 0 (no)

Q) Also CCCCCNC(=O)c1c(O)c2c([nH]c1=O)CCCC2 ?
A) 0 (no)

Q) Also COc1ccc(N2CCN(C3CC(=O)NC3=O)CC2)cc1 (stereo unspecified) ?
A) 0 (no)

Q) Also O=C(Cn1[nH]c(=O)c2ccccc2c1=O)Nc1cccnc1 ?
A) 1 (yes)

Q) Also CCCCNC(=O)/C(=C/c1ccccc1)NC(=O)/C=C/c1ccco1 ?
A) 0 (no)

Q) Also O=c1oc2cc(O)ccc2cc1-c1ccc(Cl)cc1 ?
A) 0 (no)

Q) Also CC(C)c1ccc2oc3nc(N)c(C(=O)O)cc3c(=O)c2c1 ?
A) 0 (no)

Q) Also CCOc1ccc(NS(=O)(=O)c2ccc3c(c2)n(C)c(=O)n3C)cc1 ?
A) 0 (no)

Q) Also O=S(=O)(O)c1ccc2nc(-c3ccccc3)[nH]c2c1 ?
A) 0 (no)

---

Below: a set of entries, each annotated with reported EC50.
molecular target: G-protein coupled receptor 151 (Homo sapiens) (UniProt Q8TDV0); test: GPR151 activator potency, dose response, cell-based (AID 1508610); details: cell-based GPR151 activation reporter
Sequence (Q8TDV0 whole entry, looked up): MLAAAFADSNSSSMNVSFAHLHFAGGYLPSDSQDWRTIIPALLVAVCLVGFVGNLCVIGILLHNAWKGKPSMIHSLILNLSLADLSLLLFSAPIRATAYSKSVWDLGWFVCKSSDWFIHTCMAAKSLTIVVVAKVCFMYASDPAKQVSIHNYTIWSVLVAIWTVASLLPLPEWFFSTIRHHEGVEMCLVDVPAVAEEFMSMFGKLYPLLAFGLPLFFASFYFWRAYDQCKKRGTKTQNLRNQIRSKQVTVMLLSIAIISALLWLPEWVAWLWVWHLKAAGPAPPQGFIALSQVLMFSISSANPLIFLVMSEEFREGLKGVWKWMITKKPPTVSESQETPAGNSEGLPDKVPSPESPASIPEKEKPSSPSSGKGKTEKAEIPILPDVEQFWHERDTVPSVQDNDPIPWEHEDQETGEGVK
Activity calls are given as the source filed them. How the calls were made is not given here.

Solved cases below.
> print(dat)
                                   compound                              study.target                result
1  CCOC(=O)c1c(NC(=O)CN2CC(C)OC(C)C2)sc(C)c1C (stereo unspecified)  G-protein coupled receptor 151 (Homo sapiens) (UniProt Q8TDV0)  > 31.3 µM (inactive)
2            O=C(Nc1nc2c(s1)CCCC2)C1=COCCO1  G-protein coupled receptor 151 (Homo sapiens) (UniProt Q8TDV0)  > 27.4 µM (inactive)
3  CCOC(=O)c1ccc(NC(=O)CSc2cn(Cc3ccccc3Cl)c3ccccc23)cc1  G-protein coupled receptor 151 (Homo sapiens) (UniProt Q8TDV0)  > 24.2 µM (inactive)
4  COc1cccc(-c2nnc3n2N=C(c2cccc([N+](=O)[O-])c2)CS3)c1  G-protein coupled receptor 151 (Homo sapiens) (UniProt Q8TDV0)    > 28 µM (inactive)

Q) Would you kindly share the measured EC50 for Cc1c(N=Nc2c(O)[nH]c(=S)[nH]c2=O)c(=O)n(-c2ccccc2)n1C ?
A) > 28 µM (inactive)
